FYI, the data here is from ChEMBL document CHEMBL5370549.

Biological target: CYP1A2 (Homo sapiens)
Sequence (P05177 whole entry): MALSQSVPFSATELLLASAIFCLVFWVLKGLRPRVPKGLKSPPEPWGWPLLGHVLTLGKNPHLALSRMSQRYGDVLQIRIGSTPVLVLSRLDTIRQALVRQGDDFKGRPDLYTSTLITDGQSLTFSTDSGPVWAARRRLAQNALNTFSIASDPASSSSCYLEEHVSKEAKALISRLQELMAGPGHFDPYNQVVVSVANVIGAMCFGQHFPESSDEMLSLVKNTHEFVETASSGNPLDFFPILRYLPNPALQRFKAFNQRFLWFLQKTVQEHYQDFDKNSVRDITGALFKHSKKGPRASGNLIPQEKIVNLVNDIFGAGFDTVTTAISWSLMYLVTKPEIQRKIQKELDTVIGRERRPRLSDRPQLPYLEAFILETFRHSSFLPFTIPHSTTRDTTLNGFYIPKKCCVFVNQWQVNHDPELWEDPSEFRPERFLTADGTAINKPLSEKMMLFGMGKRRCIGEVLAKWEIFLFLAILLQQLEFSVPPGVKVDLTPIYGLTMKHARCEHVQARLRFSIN
Test: Inhibition of CYP1A2 (unknown origin) assessed as enzyme activity at 10 uM relative to control
Assay type: ADME
Set-up: scale not given: the % may be the effect or the level left
Settings: read-out: Activity
readout name: activity at 10 µM (%)

Use the examples below as a reference point.
INSERT INTO assay_data (smiles_data, readout_name, unit_string, assay_value) VALUES
  ('COc1ccncc1S(=O)(=O)/C=C/c1ccccc1C(F)(F)F', 'activity at 10 µM', '%', 12.1),
  ('COc1ccc(S(=O)(=O)/C=C/c2ccccc2Cl)nc1', 'activity at 10 µM', '%', 46.1),
  ('COc1ccnc(S(=O)(=O)/C=C/c2ccnc(Cl)c2)c1', 'activity at 10 µM', '%', 89.6),
  ('COc1ccncc1S(=O)(=O)/C=C/c1ncccc1Cl', 'activity at 10 µM', '%', 79.5);

[A] COc1ccnc(S(=O)(=O)/C=C/c2ccc(Cl)cc2)c1
[B] COc1ccnc(S(=O)(=O)/C=C/c2ccccc2C(F)(F)F)c1
# returns the entry with the larger activity at 10 µM; inputs A and B Kindly state the label of the option you pick. A
